Experiment: Human HepG2 cell viability assay in 384 well format
Assay type: toxicity, cell-based
Design: dose 125 nL, time 70.5 hour; concentration not given beside the values
Conditions: HepG2 cells, read-out: Inhibition
This listing pairs compounds with measured cytotoxicity at 70.5 h.
Provide only the numeric value, understood in %.

- compound: "Cn1ncc(NC(=O)Cn2cc(-c3ccc(F)cn3)cn2)n1"
  quantitative.readout: -10.2

Identify measured cytotoxicity at 70.5 h associated with O=C(O)[C@@H]1CN(C(=O)CCN2CCCCC2)C[C@H]1c1ccccc1
-5.31

Item CNC(=O)CCc1cc(C)nc(C2CCN(C(=O)CN(C)C)CC2)c1 : provide cytotoxicity at 70.5 h
-3.32

Output measured cytotoxicity at 70.5 h for this item: CCc1nc(CNC(=O)Nc2nc(COC)cs2)cs1
-5.86

Specify reported cytotoxicity at 70.5 h for the compound shown: CC(=O)Nc1nc(CN(C)CC2CCCN2c2cccnn2)cs1 (stereo unspecified)
-12.7

Provide measured cytotoxicity at 70.5 h value, entry: CC(C(=O)N1CCN(CCOc2ccccc2)CC1)n1cc(Cl)cn1 (stereo unspecified)
-9.22

Output cytotoxicity at 70.5 h of NC(=O)CN1CCOCC(Cc2ccccc2)C1 (stereo unspecified)
-11.7

====

Experiment: Human HepG2 cell viability assay in 384 well format
Format: toxicity, cell-based
Parameters: dose 125 nL, time 70.5 hour; concentration not given beside the values
Settings: HepG2 cells, read-out: Inhibition
observation.type: cytotoxicity at 70.5 h (%)
Use % as the unit, but write only the number.

// worked examples, cytotoxicity at 70.5 h included
- molecule: "CN(C)C(=O)c1cccc(CN2CCOC(Cn3cncn3)C2)c1 (centres undefined)"
  quantitative.readout: -4.81
- molecule: "CCc1cc(NCCc2cccnc2)n2nc(C)c(C)c2n1"
  quantitative.readout: -5.81
- molecule: "CC(NC(=O)c1cccnc1N(C)C)c1ccccc1Br (centres undefined)"
  quantitative.readout: 20.1

Name the recorded cytotoxicity at 70.5 h of the molecule listed here: CCNC(=O)[C@@H]1C[C@H](NC(=O)c2cncnc2C)CN1Cc1ccsc1
-17

Annotate the molecule O=C(c1c(O)cnc2ccccc12)N1CCCSCC1 with its measured cytotoxicity at 70.5 h.
-1.19

Kindly indicate its recorded cytotoxicity at 70.5 h. Item: OCC(CO)N1CCC(c2nccnc2Nc2cnccn2)CC1
-2.76

Specify cytotoxicity at 70.5 h for COc1ccc(C(=O)C2CCCN(c3cnccn3)C2)c(C)c1 (centres undefined) and stop.
-8.1

Specify cytotoxicity at 70.5 h for CCCN1CCN(C(=O)c2cncnc2C)[C@H]2CS(=O)(=O)C[C@H]21 and stop.
3.92

For CC(=O)c1ccc(-c2cnn(CC(=O)Nc3cc(C)nn3C)c2)nc1 , write its cytotoxicity at 70.5 h.
-13

Report cytotoxicity at 70.5 h, nothing else, for this molecule: Cc1cc(C(=O)NC2CCc3c(ccc(=O)n3CC(C)C)C2)no1 (centres undefined)
-4.48

Supply cytotoxicity at 70.5 h value. Item: O=C(CCS(=O)(=O)C1CCCC1)N1CCC(O)(C(F)(F)F)C1 (centres undefined)
19.5

For the molecule CCCn1nnnc1CSc1nccn1Cc1ccccn1 , give its reported cytotoxicity at 70.5 h.
-13.2

Please supply the value of reported cytotoxicity at 70.5 h for the item CCn1nc(C)c(CN2CCCC(c3ccc(C(=O)O)cc3)C2)c1C (centres undefined)
24.4

Please give the documented cytotoxicity at 70.5 h of COCC(=O)N1CCCC1c1ccc(C(=O)NCCN2CCCCC2)s1 (centres undefined)
-10.2

====

cytotoxicity at 70.5 h: recorded values
Assay: Human HepG2 cell viability assay in 384 well format
Assay type: toxicity, cell-based
Design: dose 125 nL, time 70.5 hour; concentration not given beside the values
Details: HepG2 cells, read-out: Inhibition
Report the figure in % without appending any unit label.

Some solved cases for reference:
- molecule: "Cc1ccc(-c2nc(CN3CCOC(CN(C)C)C3)co2)cc1 (configuration not stated)"
  cytotoxicity at 70.5 h (%): -5.51
- molecule: "CCc1nc(C2CCCN2Cc2nnc(C3CCC3)o2)no1 (configuration not stated)"
  cytotoxicity at 70.5 h (%): -2.49
- molecule: "Fc1ccccc1-c1noc2c1CN(CC1CC1)CC2"
  cytotoxicity at 70.5 h (%): -3.89

Given N#CC1CCN(C(=O)CN2CC(c3ccccc3)CC2=O)CC1 (configuration not stated) , respond with its cytotoxicity at 70.5 h.
-4.6

====

Experiment: Human HepG2 cell viability assay in 384 well format
Format: toxicity, cell-based
Design: dose 125 nL, time 70.5 hour; concentration not given beside the values
Conditions: HepG2 cells, read-out: Inhibition
observation.type: cytotoxicity at 70.5 h (%)
Please respond with the number in % and leave the unit unwritten.

Reference set (10 entries):
- molecule: "CC(c1ccncn1)N(C)S(=O)(=O)NCc1ccccc1 (configuration not stated)"
  quantitative.readout: 47.6
- molecule: "CNc1cccc(C2CCCN(Cc3ncc[nH]3)C2)n1 (configuration not stated)"
  quantitative.readout: -2.87
- molecule: "CC(C)C1CN(Cc2c[nH]cn2)CCCN1CC1CC1 (configuration not stated)"
  quantitative.readout: -17.8
- molecule: "O=C(NCCN1CCCC1)c1cc2c(s1)CCN2C(=O)c1ccccc1"
  quantitative.readout: -8.31
- molecule: "CN(CCO)Cc1nnc(C2CCN(C(=O)c3ccccc3)CC2)n1C"
  quantitative.readout: 0.129
- molecule: "Cc1nc(NC(=O)C(C)S(C)(=O)=O)sc1Cc1ccccc1F (configuration not stated)"
  quantitative.readout: -7.43
- molecule: "COCCN1CCC(CN(C)c2nc3c(s2)c(C)nn3C)CC1"
  quantitative.readout: 13.5
- molecule: "Cc1cc2c(cc1NC(=O)NC(C)(C)C)OCO2"
  quantitative.readout: -7.87
- molecule: "Cc1cccc(CN2CCC3(CCN(c4ccccn4)C3)C2=O)c1 (configuration not stated)"
  quantitative.readout: -11.4
- molecule: "CC(O)CN(C(=O)NC1CC1)C(C)C (configuration not stated)"
  quantitative.readout: 29.8

Indicate the recorded cytotoxicity at 70.5 h value for this molecule: COCC1CN(C(=O)Nc2cc(C(F)(F)F)ccc2F)CCO1 (configuration not stated)
-5.23

Query cytotoxicity at 70.5 h for CC(=O)c1ccc(N2CCC(CO)(CCOc3ccccc3)CC2)nc1
-11

====

Assay: Human HepG2 cell viability assay in 384 well format
Format: toxicity, cell-based
Design: dose 125 nL, time 70.5 hour; concentration not given beside the values
Settings: HepG2 cells, read-out: Inhibition
Listed next: entries and their corresponding cytotoxicity at 70.5 h.
Only the number, expressed in %, is required.

As a guide, the following entries are already answered.
- compound: "Cc1c[nH]nc1C1CN(c2ncccn2)CCO1 (stereo not given)"
  observation.type: "cytotoxicity at 70.5 h"
  quantitative.readout: -3.49
- compound: "O=C(O)[C@]12CCCN(Cc3ccoc3)C[C@H]1CN(c1ncccn1)C2"
  observation.type: "cytotoxicity at 70.5 h"
  quantitative.readout: -6.33
- compound: "CC(C)N1CCC(c2nnc(CN3CCCC3)n2C2CC2)CC1"
  observation.type: "cytotoxicity at 70.5 h"
  quantitative.readout: -4.86
- compound: "O=c1[nH]cnc2c1CCN(S(=O)(=O)c1ccc(OC(F)(F)F)cc1)C2"
  observation.type: "cytotoxicity at 70.5 h"
  quantitative.readout: -9.4

Switching to the query record.
State its cytotoxicity at 70.5 h: Cc1cnc(N2CC[C@@H]3CN(CCC(C)C)S(=O)(=O)[C@@H]3CC2)nc1
-1.61

====

# cytotoxicity at 70.5 h per entry
Assay: Human HepG2 cell viability assay in 384 well format
Assay type: toxicity, cell-based
Parameters: dose 125 nL, time 70.5 hour; concentration not given beside the values
Details: HepG2 cells, read-out: Inhibition

Some entries whose results are on file:
- compound: "COc1cc(CCC(=O)NC2CCN(C)CC2)ccc1OCC(F)(F)F"
  cytotoxicity at 70.5 h: "-7.75%"
- compound: "COCC1CN(Cc2ccc(OC)cc2)S(=O)(=O)c2cnccc2O1 (stereo unspecified)"
  cytotoxicity at 70.5 h: "-3.12%"
- compound: "Cn1cc(CN2CCc3onc(C(=O)N4CCCC4)c3C2)cn1"
  cytotoxicity at 70.5 h: "5.88%"

Tell me its cytotoxicity at 70.5 h given COc1ccc(Oc2ccc(CNC(=O)C(C)n3cncn3)cn2)cc1 (stereo unspecified) as the entry.
-0.159%

Indicate its recorded cytotoxicity at 70.5 h; the compound in question is COc1cccc(CN2CC(=O)N(c3ccccc3C)CC2C)c1OC (stereo unspecified)
-6.78%

Supply reported cytotoxicity at 70.5 h belonging to this compound: Nc1cc(CCC2CN(Cc3ccc4cc[nH]c4c3)CCO2)ccn1 (stereo unspecified)
20.8%

====

Assay: Human HepG2 cell viability assay in 384 well format
Type: toxicity, cell-based
Parameters: dose 125 nL, time 70.5 hour; concentration not given beside the values
Details: HepG2 cells, read-out: Inhibition
# cytotoxicity at 70.5 h per record follows
// note: answer is a bare numeric in %

Use the examples below as a reference point.
- molecule: "OC(COCc1ccco1)CN1CCc2c(ncn2C2CC2)C1 (stereo unspecified)"
  cytotoxicity at 70.5 h / %: 1.85
- molecule: "CCc1nc2n(n1)CC(NCc1cnn(Cc3ccccc3)c1)CC2 (stereo unspecified)"
  cytotoxicity at 70.5 h / %: -5.29

Please find the next molecule below.
For the molecule Cc1ccc(C(=O)N2CCC3(CC2)CCN(CCN(C)C)C3=O)cn1 , give its reported cytotoxicity at 70.5 h.
-8.77
